All values here come from patent US10301272B2.

Biological target: RORγ (Homo sapiens, UniProt P51449)
Sequence (P51449 whole entry, looked up, the tested form may be a part): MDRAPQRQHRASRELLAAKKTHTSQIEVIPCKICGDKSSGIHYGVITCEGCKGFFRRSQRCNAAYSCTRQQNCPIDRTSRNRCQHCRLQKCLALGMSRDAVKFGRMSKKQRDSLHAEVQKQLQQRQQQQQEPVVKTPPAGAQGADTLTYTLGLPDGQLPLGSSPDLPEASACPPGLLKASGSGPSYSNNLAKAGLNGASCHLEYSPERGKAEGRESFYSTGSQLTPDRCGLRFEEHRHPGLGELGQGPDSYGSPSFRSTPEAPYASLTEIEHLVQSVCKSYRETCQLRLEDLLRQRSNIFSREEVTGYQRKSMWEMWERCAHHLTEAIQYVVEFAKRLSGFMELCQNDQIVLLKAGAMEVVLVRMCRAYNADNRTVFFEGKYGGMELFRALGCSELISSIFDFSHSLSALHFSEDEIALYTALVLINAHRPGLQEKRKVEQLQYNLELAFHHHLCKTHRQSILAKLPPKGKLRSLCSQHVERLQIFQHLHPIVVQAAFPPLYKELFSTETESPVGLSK
Assay: RORγ Gal4 Reporter Gene Assay
Assay type: cell-based
Protocol: Determination of a ligand mediated Gal4 promoter driven transactivation to quantify ligand binding to RORγ was performed as follows: DNA encoding three different RORγ protein fragments was cloned into vector pCMV-BD (Stratagene). Expression was under control of a CMV promoter and as fusion to the DNA-binding domain of the yeast protein GAL4. […]
readout_type: pIC50 (FF)

Look up pIC50 (FF) for this compound: `CC(C)(C)c1cc(-c2nc(C(N)=O)sc2CC2CCCCC2)cc(C(C)(C)C)c1`
6.5/5.8/5.8

I would be grateful if you could share the reported pIC50 (FF) for `CC(C)(C)NS(=O)(=O)c1ccc(-c2sc(C(=O)N3CC4CC(C3)O4)nc2CC2CCCCC2)c(Cl)c1Cl` .
7.4/7.8/8.0

Query: pIC50 (FF); subject: `CC(C)(C)c1cc(-c2sc(C(=O)N[C@H]3C[C@H](C(=O)O)C3)nc2CC2CCCCC2)cc(C(F)F)c1`
6.3/7.0/7.1

Entry `CC(C)(O)CNC(=O)c1nc(CC2CCCCC2)c(-c2ccc(S(=O)(=O)NC(C)(C)C)c3cccc(F)c23)s1` has what pIC50 (FF)?
6.4/6.8/6.9

Name the reported pIC50 (FF) value associated with the compound `CC(C)(C)NS(=O)(=O)c1ccc(-c2sc(C(=O)NC3CCS(=O)(=O)CC3)nc2-c2ccccc2)c2ccccc12`
7.2/7.8/7.9

So what does the record say about pIC50 (FF) for `CC(C)(C)NS(=O)(=O)c1ccc(-c2sc(C(=O)NCCC(C)(C)C(=O)O)nc2CC2CCCCC2)cc1C(C)(C)C` ?
6.1/6.8/6.9

Endpoint output: pIC50 (FF) of `Cc1c(C(=O)NC(C)(C)C)cc(-c2sc(C(=O)N[C@H]3C[C@H](C(=O)O)C3)nc2CC2CCCCC2)cc1C1(C)CC1` . Value?
5.8/6.8/6.8

Which pIC50 (FF) value belongs to `CSc1cnc(CNC(=O)c2nc(CC3CCCCC3)c(-c3ccc(S(=O)(=O)NC(C)(C)C)c(Cl)c3Cl)s2)s1` ?
7.0/8.2/8.3

pIC50 (FF) for `CC(C)(C)NS(=O)(=O)c1ccc(-c2sc(C(=O)NC3CCOCC3)nc2CC2CCCCC2)cc1C(C)(C)O` ?
6.8/7.7/7.7

Please report the recorded pIC50 (FF) for `CC(C)(C)NC(=O)c1cc(-c2sc(C(=O)N[C@H]3C[C@H](C(=O)O)C3)nc2CC2CCCCC2)cc(C(C)(C)C)c1` .
6.2/7.4/7.5
